- Tested on: CAKI-1 renal
- experimentalDetails: NCI-60 one-dose screen, 48 h (100 = growth as untreated, 0 = no growth, -100 = all killed)
- protocolConditions: 10 µM
The panel holds about 83,000 compounds, 20% with a hit somewhere; the sample as a whole holds those more often.
Entries annotated with measured growth
Report as a plain number; the unit % is understood.

Worked cases, answers included:
N/C(=N\OC(=O)CSc1nc2ccccc2s1)c1ccc2ccccc2c1 :: 85.8
Cc1nn(-c2ccccc2)c2nc(CCl)[nH]c(=O)c12 :: 99.6
CS(=O)c1nccc(-c2c(-c3ccc(F)c(OCc4ccc(F)cc4)c3)nc3sccn23)n1 (stereo not given) :: 70.8
COc1ccc(CCN2C(=O)/C(=C/c3nc(CO)cs3)SC2=S)cc1 :: 63.4

Could you now consider this next molecule?
For `O=C(CSc1nnc(-c2cccs2)n1-c1ccccc1)Nc1ccc(F)cc1` , what is its reported growth?
87.3
